# systemTested: T1, human GLP-1 receptor (hGLP-1r) (Homo sapiens, UniProt P43220)
# T1 construct: expressed in transfected cells
# T1 sequence (P43220 24-463): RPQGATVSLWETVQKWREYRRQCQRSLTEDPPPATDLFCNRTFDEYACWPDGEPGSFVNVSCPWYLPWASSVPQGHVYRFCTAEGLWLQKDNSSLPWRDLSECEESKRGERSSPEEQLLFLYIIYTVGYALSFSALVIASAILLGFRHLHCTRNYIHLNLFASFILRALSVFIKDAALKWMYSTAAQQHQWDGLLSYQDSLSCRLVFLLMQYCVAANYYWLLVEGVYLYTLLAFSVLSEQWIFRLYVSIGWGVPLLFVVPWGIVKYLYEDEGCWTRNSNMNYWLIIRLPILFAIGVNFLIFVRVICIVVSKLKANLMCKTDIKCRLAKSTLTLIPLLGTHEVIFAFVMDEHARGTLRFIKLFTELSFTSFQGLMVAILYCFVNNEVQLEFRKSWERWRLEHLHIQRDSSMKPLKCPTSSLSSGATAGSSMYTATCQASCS
# measurementProtocol: BSA-cAMP assay, cells expressing human GLP-1 receptor
# Assay type: cell-based
# cond: BSA-cAMP assay; batch 1 unless a batch is given; read-out: cAMP activity hGLP1r (EC50)
# Method: One basic cAMP assays was performed, differing in the medium used for the assay, the “BSA-cAMP assay”: BSA-based assay medium: 0.1% bovine serum albumin (BSA) in […] cAMP levels were measured using a commercially available cAMP dynamic 2 HTRF kit (Cisbio, Cat #62AM4PEJ), following the two step protocol as per manufacturer's recommendations. […]
pEC50: −log10 of the molar value.
valueType: pEC50

// solved cases for pEC50 follow
[
  {
    "molecule": "IP207 (protein, /note=“Description of Artificial Sequence Synthetic Peptide-linker-hinge polypeptide”) YAEGTFISDYSIAMDKIHQQDFVNWLLAQKGKKNDWKHNITQAAAGGSGSTASSGSGSATGGGGAATHTCPPCPAPELL",
    "valueType": "pEC50",
    "value": 5.39
  },
  {
    "molecule": "IP188 (protein, /note=“Description of Artificial Sequence Synthetic Peptide-linker-hinge polypeptide”) YSEGTFISDYSIAMDKIHQQDFVNWLLAQKAPPGGGGGSGGGGSGGGGSGGGGSATHTCPPCPAPEF",
    "valueType": "pEC50",
    "value": 6.30
  },
  {
    "molecule": "IP230 (protein, /note=“Description of Artificial Sequence Synthetic Peptide-linker-hinge polypeptide”) HGEGTFTSDVSSYLEGQAAKEFIAWLVKGAAAGGSGSTASSGSGSATGGGGAATHTCPPCPAPEF",
    "valueType": "pEC50",
    "value": 10.25
  },
  {
    "molecule": "IP173: isolated polypeptide named in b21; sequence stands in a table not shown here (protein, /note=“Description of Artificial Sequence Synthetic Peptide-linker-hinge polypeptide”) YSEGTFTSDVSSYLEEQAAKEFIAWLLAGAAAGGSGSTASSGSGSATGGGGAATHTCPPCPAPEF",
    "valueType": "pEC50",
    "value": 9.64
  },
  {
    "molecule": "IP174: isolated polypeptide named in b21; sequence stands in a table not shown here (protein, /note=“Description of Artificial Sequence Synthetic Peptide-linker-hinge polypeptide”) HGEGTFTSDVSSYLEEEAAKEFIAWLVAGGAAAGGSGSTASSGSGSATGGGGAATHTCPPCPAPEF",
    "valueType": "pEC50",
    "value": 10.49
  },
  {
    "molecule": "IP233 (protein, /note=“Description of Artificial Sequence Synthetic Peptide-linker-hinge polypeptide”) HGEGTFTSDVSSYLEEQAAKEFIAWLVKGAAAGGSGSTASSGSGSATGGGGAATHTCPPCPAPEF",
    "valueType": "pEC50",
    "value": 10.44
  },
  {
    "molecule": "IP247: Fc fusion, IgG1-TM, SEQ ID NO:117; agonist peptide YSEGTFTSDYSKLLEKIHQQLFIEWLVKGP (protein, also: Fc fusion, IgG1-TM, agonist peptide YSEGTFTSDYSKLLEKIHQQLFIEWLVKGP) YSEGTFTSDYSKLLEKIHQQLFIEWLVKGPAAAGGSGSTASSGSGSATGGGGAATHTCPPCPAPEF",
    "valueType": "pEC50",
    "value": 7.20
  }
]

P. IP250 (protein, /note=“Description of Artificial Sequence Synthetic Peptide-linker-hinge polypeptide”) YSEGTFTSDVSIAMDRQAIDEFIAWLLKGGAAAGGSGSTASSGSGSATGGGGAATHTCPPCPAPEF
Q. IP195 (protein, /note=“Description of Artificial Sequence Synthetic Peptide-linker-hinge polypeptide”) HGEGTFTSDVSSYLEGQAAKEFIAWLVKGAAAGGSGSTASSGSGSATGGGGESKYGPPCPPCPAPEF
Input line: Pick one: P or Q . Which one has the lower reported pEC50? Response format: the label of the selected entry.
Output line: P

Where these numbers come from: patent US20160185837A1
